Data provenance is patent US20240018125A1.

Here the recorded melting point is given for each entry.
Structures can show the parent of a compound that is named as a salt.

Past entries and their recorded results:
Ask: For the compound CC1N=C(SCC2=CSC3=NC(Cc4ccccc4)CN23)Nc2ccccc21 (stereo not drawn) (as salt: hydrochloride) [Example 113, dihydrochloride] , what melting point is on record?
Reply: 80 to 88 °C

Ask: For the compound Fc1cccc2c1CN=C(SCC1=CSC3=NC(Cc4ccccc4)CN13)N2 (stereo not drawn) (as salt: hydrochloride) [Example 117, dihydrochloride] , what melting point is on record?
Reply: 147 to 151 °C

Ask: For the compound CCCCC1CN=C(SCC2=CSC3=Nc4ccccc4CN23)N1 (stereo not drawn) (as salt: hydrochloride) [Example 29, dihydrochloride] , what melting point is on record?
Reply: 227 to 234 °C

Next:
Ask: For the compound CC1(c2ccccc2)CN2C(CSC3=NCc4ccccc4N3)=CSC2=N1 (stereo not drawn) (as salt: hydrochloride) [Example 38, dihydrochloride] , what melting point is on record?
Reply: 230 to 235 °C

Ask: For the compound IC1=C(CSC2=NCc3ccccc3N2)N2CC(Cc3ccccc3)N=C2S1 (stereo not drawn) (as salt: hydrochloride) [Example 110, dihydrochloride] , what melting point is on record?
Reply: 177 to 182 °C

Ask: For the compound Ic1cc2c(c(I)c1I)NC(SCCN1CCCC1)=NC2 (as salt: hydrochloride) [Example 134, dihydrochloride] , what melting point is on record?
Reply: 190 to 195 °C
